Below, each entry is listed alongside its reported MIC Enterococcus avium (GC 4558).
- Tested on: Enterococcus sp.
- PROTOCOL_NOTES: in vitro antibacterial evaluation, MIC by broth dilution
- Type: cell-based
- COND: Enterococcus avium (GC 4558); broth dilution, 18 hours at 35° C.
Please respond with the number in µg/mL and leave the unit unwritten.

>>> result_number("CC(c1ccccc1)C1NC(=O)CNC(=O)C(CO)NC(=O)C(C(O)C2CNC(=N)N2C2OC(CO)C(O)C(O)C2O)NC(=O)C(C(O)C2CNC(=N)N2)NC(=O)C(Cc2ccc(OC3OC(CO)C(OC4OC(CO)C(O)C(O)C4O)C(O)C3O)c(N)c2)NC1=O (stereo not shown)")
64

Now look at this one.
MIC Enterococcus avium (GC 4558) for CN=C1N(C)CC(C(O)C2NC(=O)C(Cc3ccc(OC4OC(CO)C(OC5OC(CO)C(O)C(O)C5O)C(O)C4O)cc3)NC(=O)C(C(C)c3ccccc3)NC(=O)CNC(=O)C(CO)NC(=O)C(C(O)C3CN(C)C(=NC)N3C3OC(CO)C(O)C(O)C3O)NC2=O)N1C (stereo not shown) ?
128
